// provenance: the supplement of paper PMC10037445

tested on: RAW-Dual; experiment: IRF Lucia reporter activity, fold change vs agonist alone; cytotoxicity flag (confluency mask): not cytotoxic; higher = enhanced IRF activity; settings: agonist: LPS (TLR4) 0.1 ug/mL
Over roughly 2,900 compounds, “IRF Lucia reporter activity, fold change vs agonist alone” has its median near 0.9; the highest 2% begin near 2.8. Shown is part of a subset that was picked to be rich in the highest values.
Please go through the items and note down their IRF Lucia reporter activity.
One number for each entry.

For orientation, consider the following solved cases.
{"columns": ["compound", "experimental.value"],
 "data": [
  ["COC(=O)NC(C(=O)N1CCCC1c1ncc(-c2ccc(-c3ccc(-c4cnc(C5CCCN5C(=O)C(NC(=O)OC)C(C)C)[nH]4)cc3)cc2)[nH]1)C(C)C.Cl.Cl (stereo unspecified) (library stock concentration (final ~1000-fold dilution): 10 mM)", 7.56],
  ["O=C(NOCC1CC1)c1ccc(F)c(F)c1Nc1ccc(I)cc1Cl (library stock concentration (final ~1000-fold dilution): 10 mM)", 2.5],
  ["Cc1c(NC(=O)OCC2COCCN2)cn2ncnc(Nc3ccc4c(cnn4Cc4cccc(F)c4)c3)c12 (stereo unspecified) (library stock concentration (final ~1000-fold dilution): 10 mM)", 1.28]
]}

Working through the 8 compounds below one at a time, give IRF Lucia reporter activity for each.
1. Nc1ncnc2c1ncn2C(C=O)OC(C=O)CO (stereo unspecified) (library stock concentration (final ~1000-fold dilution): 10 mM)
2. Cn1c(=O)c(F)c(Nc2ccc(I)cc2F)c2c(=O)n(CC(O)CO)cnc21 (stereo unspecified) (library stock concentration (final ~1000-fold dilution): 10 mM)
3. Cn1cc(-c2cc3c(-c4ccc(CNC(=O)c5noc(C(C)(C)C)n5)c(F)c4)ncnc3[nH]2)cn1 (library stock concentration (final ~1000-fold dilution): 10 mM)
4. COS(=O)(=O)[O-].Cc1cc2c3c([n+](C)c4ccc(F)cc4c3c1)-c1cc(F)ccc1N2C (library stock concentration (final ~1000-fold dilution): 10 mM)
5. Cc1[nH]c(C=C2C(=O)Nc3ccc(F)cc32)c(C)c1C(=O)NCCN1CCCC1 (library stock concentration (final ~1000-fold dilution): 2 mM)
6. O=C(NOCC(O)CO)c1ccc(F)c(F)c1Nc1ccc(I)cc1F (stereo unspecified) (library stock concentration (final ~1000-fold dilution): 10 mM)
7. CCC(C)(Nc1ccnc(-c2c[nH]c3ncccc23)n1)C(=O)NCC(F)(F)F (stereo unspecified) (library stock concentration (final ~1000-fold dilution): 10 mM)
8. O=C(NOCCO)c1ccc2cncn2c1Nc1ccc(I)cc1F (library stock concentration (final ~1000-fold dilution): 10 mM)

Output:
1: 0.724; 2: 0.819; 3: 0.396; 4: 1.53; 5: 0.194; 6: 3.61; 7: 0.35; 8: 3.65

---

test system: RAW-Dual; experiment: IRF Lucia reporter activity, fold change vs agonist alone; cytotoxicity flag (confluency mask): cytotoxic (confluency <70% of control); higher = enhanced IRF activity; details: agonist: LPS (TLR4) 0.1 ug/mL
Over roughly 2,900 compounds, “IRF Lucia reporter activity, fold change vs agonist alone” has its median near 0.9; the highest 2% begin near 2.8. Only a selection was taken, and the highest values are over-represented in it overall.
Please go through the items and note down their IRF Lucia reporter activity.
Answers are plain numbers.

{"columns": ["molecule", "target.under.test", "IRF Lucia reporter activity"],
 "data": [
  ["CCOC(=O)C1=C(COCCN)NC(C)=C(C(=O)OC)C1c1ccccc1Cl.O=S(=O)(O)c1ccccc1 (stereo not drawn) (library stock concentration (final ~1000-fold dilution): 10 mM)", "RAW-Dual", 3.19],
  ["Cl.O=C(NC1CCNCC1)c1n[nH]cc1NC(=O)c1c(Cl)cccc1Cl (library stock concentration (final ~1000-fold dilution): 10 mM)", "RAW-Dual", 0.581]
]}

Could you now consider this next molecule?
Input: Would you mind telling me what IRF Lucia reporter activity value was observed for CC(=O)OCC1OC([S-])C(OC(C)=O)C(OC(C)=O)C1OC(C)=O.CCP(CC)CC.[Au+] (stereo not drawn) (library stock concentration (final ~1000-fold dilution): 10 mM) ?
Output: 0.0188
